Reported drug sensitivity score values follow for various compounds
tested on: T-47D; test: drug sensitivity score (DSS) (DSS (dimensionless)); higher = more sensitive; extreme values may be limits of the assay; details: 4-OH-tamoxifen in medium 1 µM; 72 h
attribute-measured: drug sensitivity score

• CNC(=O)c1ccccc1Sc1ccc2c(/C=C/c3ccccn3)n[nH]c2c1 = 0.979
• CS(=O)(=O)c1ccc(C(=O)Nc2ccc(Cl)c(-c3ccccn3)c2)c(Cl)c1 = 0
• S=c1[nH]cnc2nc[nH]c12 = 0
• COc1cc(CCc2cc(NC(=O)c3ccc(N4CC(C)NC(C)C4)cc3)n[nH]2)cc(OC)c1 (stereo unspecified) = 0
• CCC1(c2ccc(N)cc2)CCC(=O)NC1=O (stereo unspecified) [Aminoglutethimide] = 0.781
• COc1cc2c(Oc3ccc(NC(=O)C4(C(=O)Nc5ccc(F)cc5)CC4)cc3F)ccnc2cc1OCCCN1CCOCC1 = 0.227
• C[C@]1(O)C[C@@H](c2nc(-c3ccc4ccc(-c5ccccc5)nc4c3)c3c(N)nccn32)C1 = 2.45
• CCc1c(C(=O)C(N)=O)c2c(OCC(=O)O)cccc2n1Cc1ccccc1 = 0
• N#Cc1ccc(COC[C@H]2O[C@@H](n3c(NCc4ccc(Cl)c(Cl)c4)nc4c(N)ncnc43)[C@H](O)[C@@H]2O)cc1 = 1.02
• Cc1[nH]c2ccccc2c1CCNCc1ccc(/C=C/C(=O)NO)cc1 = 15.9
• CN(C)CCN1C(=O)c2cccc3cc(N)cc(c23)C1=O [Amonafide] = 0

====

Reported drug sensitivity score values follow for various compounds
test system: BT-474; assay: drug sensitivity score (DSS) (DSS (dimensionless)); higher = more sensitive; extreme values may be limits of the assay; details: 4-OH-tamoxifen in medium 1 µM; 72 h
attribute-measured: drug sensitivity score

• C[C@]12CC[C@@H]3c4ccc(O)cc4C[C@@H](CCCCCCCCC[S+]([O-])CCCC(F)(F)C(F)(F)F)[C@H]3[C@@H]1CC[C@@H]2O (stereo partly drawn) = 0
• S=P(N1CC1)(N1CC1)N1CC1 = 0
• CC[C@@H]1C(=O)N(C)c2cnc(Nc3ccc(C(=O)NC4CCN(C)CC4)cc3OC)nc2N1C1CCCC1 = 7.89
• C=CC(=O)N1CCC[C@@H](n2nc(-c3ccc(Oc4ccccc4)cc3)c3c(N)ncnc32)C1 = 26.2
• CN(C)c1nc(N(C)C)nc(N(C)C)n1 = 0
• CC(=O)Nc1cccc(-n2c(=O)n(C3CC3)c(=O)c3c(Nc4ccc(I)cc4F)n(C)c(=O)c(C)c32)c1 = 0.246
• Nc1cc(C(F)(F)F)c(-c2cc(N3CCOCC3)nc(N3CCOCC3)n2)cn1 = 11.1
• CN(C)C[C@@H]1CCn2cc(c3ccccc32)C2=C(C(=O)NC2=O)c2cn(c3ccccc23)CCO1 = 8.42

====

Reported drug sensitivity score values follow for various compounds
system: T-47D Tam2; assay: drug sensitivity score (DSS) (DSS (dimensionless)); higher = more sensitive; extreme values may be limits of the assay; conditions: 4-OH-tamoxifen in medium 1 µM; 72 h
Where a name gives a salt, the structure may show the parent alone.
attribute-measured: drug sensitivity score

* COc1ccc(S(=O)(=O)Nc2cccnc2Nc2ccc(O)cc2)cc1 | 4.48
* Nc1ccn([C@@H]2O[C@H](CO)[C@@H](O)[C@@H]2O)c(=O)n1 | 0
* CC(=O)O[C@H]1C(=O)[C@@]2(C)[C@H]([C@H](OC(=O)c3ccccc3)[C@]3(O)C[C@H](OC(=O)[C@H](O)[C@@H](NC(=O)c4ccccc4)c4ccccc4)C(C)=C1C3(C)C)[C@]1(OC(C)=O)CO[C@@H]1C[C@@H]2O | 7.33
* O=C(Cc1ccc(-c2ccc(OCCN3CCOCC3)cc2)cn1)NCc1ccccc1 | 11.3
* O=C(c1ccc(OCCN2CCCCC2)cc1)c1c(-c2ccc(O)cc2)sc2cc(O)ccc12 [Raloxifene HCl] | 1.8
* CCCCC(=O)OCC(=O)[C@]1(O)Cc2c(O)c3c(c(O)c2[C@@H](O[C@H]2C[C@H](NC(=O)C(F)(F)F)[C@H](O)[C@H](C)O2)C1)C(=O)c1c(OC)cccc1C3=O | 6.34
* Cc1cn(-c2cc(NC(=O)c3ccc(C)c(Nc4nccc(-c5cccnc5)n4)c3)cc(C(F)(F)F)c2)cn1 | 0
* C=CC[C@@H]1/C=C(\C)C[C@H](C)C[C@H](OC)[C@H]2O[C@@](O)(C(=O)C(=O)N3CCCC[C@H]3C(=O)O[C@H](/C(C)=C/[C@@H]3CC[C@@H](O)[C@H](OC)C3)[C@H](C)[C@@H](O)CC1=O)[C@H](C)C[C@@H]2OC | 0.788
* CC1(C)CCC(c2ccc(Cl)cc2)=C(CN2CCN(c3ccc(C(=O)NS(=O)(=O)c4ccc(N[C@H](CCN5CCOCC5)CSc5ccccc5)c(S(=O)(=O)C(F)(F)F)c4)cc3)CC2)C1 | 1.65
* CO[C@H]1C[C@@H]2CC[C@@H](C)[C@@](O)(O2)C(=O)C(=O)N2CCCC[C@H]2C(=O)O[C@H]([C@H](C)C[C@@H]2CC[C@@H](OC(=O)C(C)(CO)CO)[C@H](OC)C2)CC(=O)[C@H](C)/C=C(\C)[C@@H](O)[C@@H](OC)C(=O)[C@H](C)C[C@H](C)/C=C/C=C/C=C/1C | 2.09
* O=C(/C=C/c1cccc(S(=O)(=O)Nc2ccccc2)c1)NO | 7.43

====

test system: T-47D; test: drug sensitivity score (DSS) (DSS (dimensionless)); higher = more sensitive; extreme values may be limits of the assay; details: 4-OH-tamoxifen in medium 1 µM; 72 h
attribute-measured: drug sensitivity score

- S=P(N1CC1)(N1CC1)N1CC1: 0
- Cn1cncc1[C@@](N)(c1ccc(Cl)cc1)c1ccc2c(c1)c(-c1cccc(Cl)c1)cc(=O)n2C [Tipifarnib (Zarnestra)]: 0.489
- CC(C)Cn1cnc2c(N)nc3ccccc3c21: 0
- CNC(=O)c1ccc(N2C(=S)N(c3ccc(C#N)c(C(F)(F)F)c3)C(=O)C2(C)C)cc1F [Enzalutamide (MDV 3100)]: 0
- C[C@H]1C[C@@H]2[C@H]([C@@H](O)C[C@@]3(C)[C@H]2CC[C@]3(O)C(=O)CO)[C@@]2(C)C=CC(=O)C=C12: 0
- CN1CCN(c2nc(C3=C(c4c[nH]c5ccccc45)C(=O)NC3=O)c3ccccc3n2)CC1: 0
- Clc1ccc(Nc2nnc(Cc3ccncc3)c3ccccc23)cc1: 0
- COC1=C2C[C@@H](C)C[C@H](OC)[C@H](O)[C@@H](C)/C=C(\C)[C@H](OC(N)=O)[C@@H](OC)/C=C\C=C(/C)C(=O)NC(=CC1=O)C2=O: 3.67
- Cc1cc(Nc2nc(N[C@@H](C)c3ncc(F)cn3)ncc2Cl)[nH]n1: 0
- CC(=O)c1c(C)c2cnc(Nc3ccc(N4CCNCC4)cn3)nc2n(C2CCCC2)c1=O: 0
- C[C@]1(c2nc3c(C(N)=O)cccc3[nH]2)CCCN1: 0
- CO[C@@H]1[C@H](N(C)C(=O)c2ccccc2)C[C@H]2O[C@]1(C)n1c3ccccc3c3c4c(c5c6ccccc6n2c5c31)C(=O)NC4: 3.14
- c1ccc2c(CCNc3ccc(Nc4ccncc4)cc3)c[nH]c2c1: 0
- CC1=C(/C=C/C(C)=C/C=C/C(C)=C/C(=O)O)C(C)(C)CCC1: 0
- CO[C@H]1/C=C\C=C(/C)C(=O)NC2=CC(=O)C(NCCN(C)C)=C(C[C@@H](C)C[C@H](OC)[C@H](O)[C@@H](C)/C=C(\C)[C@@H]1OC(N)=O)C2=O: 3.41
- CCOc1cc2ncc(C#N)c(Nc3ccc(OCc4ccccn4)c(Cl)c3)c2cc1NC(=O)/C=C/CN(C)C: 0
- O=C(Nc1cccnc1)N1CCC(Cc2cccc(Oc3ccc(C(F)(F)F)cn3)c2)CC1: 10.7
- CC(C)n1cnc2c(NCCc3ccc(O)cc3)nc(-c3csc4ccccc34)nc21: 2.41
- C[C@]12CC[C@H](O)CC1=CC[C@@H]1[C@@H]2CC[C@]2(C)C(c3cccnc3)=CC[C@@H]12: 0
- CN1CC[C@H](c2c(O)cc(O)c3c(=O)cc(-c4ccccc4Cl)oc23)[C@H](O)C1: 0
- O=P(O)(O)C(O)(Cn1ccnc1)P(=O)(O)O: 0
- CN1CCN(c2ccc3nc(-c4c(N)c5c(F)cccc5[nH]c4=O)[nH]c3c2)CC1: 0
- Cc1cc(Nc2cc(CN3CCOCC3)c3nc(C)c(Cc4ccc(Cl)cc4F)n3n2)n[nH]1: 1.86
- Cc1c2oc3c(C)ccc(C(=O)N[C@@H]4C(=O)N[C@H](C(C)C)C(=O)N5CCC[C@H]5C(=O)N(C)CC(=O)N(C)[C@@H](C(C)C)C(=O)O[C@@H]4C)c3nc-2c(C(=O)N[C@@H]2C(=O)N[C@H](C(C)C)C(=O)N3CCC[C@H]3C(=O)N(C)CC(=O)N(C)[C@@H](C(C)C)C(=O)O[C@@H]2C)c(N)c1=O: 12
- C[C@]12C=CC(=O)C=C1CC[C@@H]1[C@@H]2C(=O)C[C@@]2(C)[C@H]1CC[C@]2(O)C(=O)CO: 0
- Nc1nc2[nH]cc(CCc3ccc(C(=O)N[C@@H](CCC(=O)O)C(=O)O)cc3)c2c(=O)[nH]1: 0
- CC(C)C[C@H](NC(=O)[C@H](CCc1ccccc1)NC(=O)CN1CCOCC1)C(=O)N[C@@H](Cc1ccccc1)C(=O)N[C@@H](CC(C)C)C(=O)[C@@]1(C)CO1: 25.8
- Cc1ccc(F)c(NC(=O)Nc2ccc(-c3cccc4[nH]nc(N)c34)cc2)c1: 0
- O=c1[nH]c(=O)n([C@H]2C[C@H](O)[C@@H](CO)O2)cc1F: 0
